Values compiled from ChEMBL document CHEMBL3351497.

Items are presented alongside their recorded IC50.
MEASURED TARGET: Integrin alpha-V/beta-6 (Homo sapiens, UniProt P06756+P18564)
Sequence (P06756 31-889 limits assumed): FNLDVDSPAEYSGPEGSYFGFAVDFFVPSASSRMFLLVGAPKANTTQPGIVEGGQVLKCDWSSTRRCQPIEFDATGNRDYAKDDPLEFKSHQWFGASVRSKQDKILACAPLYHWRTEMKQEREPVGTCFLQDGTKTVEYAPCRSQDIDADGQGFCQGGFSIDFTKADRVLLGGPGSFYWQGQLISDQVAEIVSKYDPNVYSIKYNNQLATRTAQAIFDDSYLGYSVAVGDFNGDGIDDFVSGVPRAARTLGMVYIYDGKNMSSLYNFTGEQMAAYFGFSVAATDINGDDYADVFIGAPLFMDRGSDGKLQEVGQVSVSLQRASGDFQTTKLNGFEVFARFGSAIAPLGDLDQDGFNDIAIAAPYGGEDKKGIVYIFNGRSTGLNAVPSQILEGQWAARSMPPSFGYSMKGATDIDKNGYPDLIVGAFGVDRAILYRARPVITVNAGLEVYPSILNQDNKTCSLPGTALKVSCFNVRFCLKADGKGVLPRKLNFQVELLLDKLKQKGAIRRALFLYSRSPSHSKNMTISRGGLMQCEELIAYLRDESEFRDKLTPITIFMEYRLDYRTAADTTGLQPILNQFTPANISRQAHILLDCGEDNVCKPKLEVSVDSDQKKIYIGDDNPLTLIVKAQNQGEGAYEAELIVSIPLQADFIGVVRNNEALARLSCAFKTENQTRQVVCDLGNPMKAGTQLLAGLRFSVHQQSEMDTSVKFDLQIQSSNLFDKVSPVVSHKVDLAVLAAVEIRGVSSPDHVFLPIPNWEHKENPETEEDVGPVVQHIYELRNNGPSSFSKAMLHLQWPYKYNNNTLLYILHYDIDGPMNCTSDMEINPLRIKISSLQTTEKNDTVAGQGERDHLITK
Sequence (P06756 891-1048 limits assumed): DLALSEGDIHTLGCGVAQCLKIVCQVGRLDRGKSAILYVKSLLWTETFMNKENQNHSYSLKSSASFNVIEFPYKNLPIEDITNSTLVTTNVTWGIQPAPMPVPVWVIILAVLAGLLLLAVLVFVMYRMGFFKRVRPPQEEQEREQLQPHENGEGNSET
Sequence (P18564 22-788 limits assumed): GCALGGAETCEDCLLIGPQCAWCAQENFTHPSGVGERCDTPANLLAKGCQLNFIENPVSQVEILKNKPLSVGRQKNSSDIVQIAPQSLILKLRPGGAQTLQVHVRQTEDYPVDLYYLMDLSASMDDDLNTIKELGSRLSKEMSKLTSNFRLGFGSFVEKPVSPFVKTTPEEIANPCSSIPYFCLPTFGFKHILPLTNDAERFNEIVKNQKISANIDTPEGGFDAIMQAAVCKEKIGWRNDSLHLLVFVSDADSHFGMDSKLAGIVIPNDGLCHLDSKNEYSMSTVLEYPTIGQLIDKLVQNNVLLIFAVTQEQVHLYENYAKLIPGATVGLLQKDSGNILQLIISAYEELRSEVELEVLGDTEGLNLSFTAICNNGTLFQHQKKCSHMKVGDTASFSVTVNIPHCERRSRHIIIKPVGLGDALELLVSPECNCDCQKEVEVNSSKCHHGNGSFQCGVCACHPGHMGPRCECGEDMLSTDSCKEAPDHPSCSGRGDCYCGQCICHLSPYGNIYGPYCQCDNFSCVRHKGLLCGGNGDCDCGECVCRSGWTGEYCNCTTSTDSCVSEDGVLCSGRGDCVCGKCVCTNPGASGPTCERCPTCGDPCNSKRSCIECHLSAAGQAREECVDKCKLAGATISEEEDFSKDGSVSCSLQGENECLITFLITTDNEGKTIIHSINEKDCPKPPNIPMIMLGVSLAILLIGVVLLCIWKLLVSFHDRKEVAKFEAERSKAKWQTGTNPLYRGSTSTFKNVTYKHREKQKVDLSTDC
METHOD DESCRIPTION: Inhibition of integrin alphavbeta6 (unknown origin)-mediated K562 cell adhesion to LAPb1 coated surface by fluorescence analysis
Type: cell-based
OBSERVED PROPERTY: IC50 (nM)

{"MOLECULE": "O=C(O)C[C@H](NC(=O)CCCCc1ccc2c(n1)NCCC2)c1cccc(C(F)(F)F)c1", "OBSERVED PROPERTY": "IC50", "COMPARISON OPERATOR": "=", "EXPERIMENTAL RESULT": 79.4}
{"MOLECULE": "O=C(O)CC(NC(=O)CCCCc1ccc2c(n1)NCCC2)c1ccccc1F (racemic)", "OBSERVED PROPERTY": "IC50", "COMPARISON OPERATOR": "=", "EXPERIMENTAL RESULT": 1000}
{"MOLECULE": "COc1ccccc1C(CC(=O)O)NC(=O)CCCCc1ccc2c(n1)NCCC2 (racemic)", "OBSERVED PROPERTY": "IC50", "COMPARISON OPERATOR": ">", "EXPERIMENTAL RESULT": 10000}
{"MOLECULE": "O=C(O)CC(NC(=O)CCCCc1ccc2c(n1)NCCC2)c1ccc(Cl)c(C(F)(F)F)c1 (single isomer, unassigned; enantiomer 2)", "OBSERVED PROPERTY": "IC50", "COMPARISON OPERATOR": ">", "EXPERIMENTAL RESULT": 10000}
